Cited source: the supplement of paper PMC8612539

List of minimum inhibitory concentration values.
# System: Escherichia coli
# ASSAY_INFO: minimum inhibitory concentration (MIC)
# ASSAY_CONDITIONS: isolate (source animal id): 164
Number only, in µg/mL; omit the unit.

# QUERY_SMILES, OUTPUT_UNIT, NUMBER
rows = [
    ("CC[C@H]1OC(=O)C[C@@H](O)[C@H](C)[C@@H](O[C@@H]2O[C@H](C)[C@@H](O)[C@H](N(C)C)[C@H]2O)[C@@H](CCN2CCCCC2)C[C@@H](C)C(=O)/C=C/C(C)=C/[C@@H]1CN1CCCCC1", "µg/mL", 4),
]

Lab note: next molecule to report on.
Look up minimum inhibitory concentration with Escherichia coli for this molecule: CCCN1C[C@H](C)[C@@H](O)[C@](C)(O)[C@@H](CC)OC(=O)[C@H](C)[C@@H](O[C@H]2C[C@@](C)(OC)[C@@H](O)[C@H](C)O2)[C@H](C)[C@@H](O[C@@H]2O[C@H](C)C[C@H](N(C)C)[C@H]2O)[C@](C)(O)C[C@H]1C
8

----------
Reported log10 of minimum inhibitory concentration values follow for various compounds
# Test system: Enterococcus spp.
# ASSAY_INFO: minimum inhibitory concentration (MIC)
# ASSAY_CONDITIONS: isolate (source animal id): 194
Scale: decimal log of minimum inhibitory concentration, minimum inhibitory concentration in µg/mL.

# QUERY_SMILES, NUMBER
records = [
    ("CN1C[C@@H]2C[C@H]1CN2c1cc2c(cc1F)c(=O)c(C(=O)O)cn2C1CC1", -0.30),
    ("CCC[C@@H]1C[C@@H](C(=O)N[C@@H]([C@H]2O[C@H](SC)[C@H](O)[C@@H](O)[C@H]2O)[C@H](C)Cl)N(C)C1", 1.20),
    ("CC1(C)S[C@@H]2[C@H](NC(=O)Cc3ccccc3)C(=O)N2[C@H]1C(=O)O", 0.00),
    ("CC[C@H]1OC(=O)C[C@@H](O)[C@H](C)[C@@H](O[C@@H]2O[C@H](C)[C@@H](O[C@H]3C[C@@](C)(O)[C@@H](O)[C@H](C)O3)[C@H](N(C)C)[C@H]2O)[C@@H](CC=O)C[C@@H](C)C(=O)/C=C/C(C)=C/[C@@H]1CO[C@@H]1O[C@H](C)[C@@H](O)[C@@H](OC)[C@H]1OC", 0.30),
    ("CN[C@@H]1[C@H](O)[C@H](NC)[C@H]2O[C@@]3(O)C(=O)C[C@@H](C)O[C@H]3O[C@@H]2[C@H]1O", 1.81),
]

For the next question, use this compound.
Request - read-out log10 of minimum inhibitory concentration | tested on Enterococcus spp. | compound NC[C@@H]1O[C@H](O[C@H]2[C@@H](O)[C@H](O[C@@H]3[C@@H](O)[C@H](N)C[C@H](N)[C@H]3O[C@H]3O[C@H](CN)[C@@H](O)[C@H](O)[C@H]3N)O[C@@H]2CO)[C@H](N)[C@@H](O)[C@@H]1O
0.90

----------
# System: Mannheimia haemolytica
# ASSAY_INFO: minimum inhibitory concentration (MIC)
# ASSAY_CONDITIONS: isolate (source animal id): 180
In this section we review reported minimum inhibitory concentration values for a set of compounds.

Use the examples below as a reference point.
# QUERY_SMILES, minimum inhibitory concentration
data = [
    ("CN(C)[C@@H]1C(O)=C(C(N)=O)C(=O)[C@@]2(O)C(O)=C3C(=O)c4c(O)cccc4[C@@](C)(O)[C@H]3C[C@@H]12", "4 µg/mL"),
    ("CC[C@H]1OC(=O)C[C@@H](O)[C@H](C)[C@@H](O[C@@H]2O[C@H](C)[C@@H](O)[C@H](N(C)C)[C@H]2O)[C@@H](CCN2CCCCC2)C[C@@H](C)C(=O)/C=C/C(C)=C/[C@@H]1CN1CCCCC1", "≤ 1 µg/mL"),
]

Read the next record carefully.
# minimum inhibitory concentration lookup, item CN1C[C@@H]2C[C@H]1CN2c1cc2c(cc1F)c(=O)c(C(=O)O)cn2C1CC1
≤ 0.12 µg/mL

----------
# Tested on: Mannheimia haemolytica
# ASSAY_INFO: minimum inhibitory concentration (MIC)
# ASSAY_CONDITIONS: isolate (source animal id): 318
MEASURED_ATTRIBUTE: minimum inhibitory concentration (µg/mL)
Answer with a number only, understood to be in µg/mL.

A selection of reference data follows.
# QUERY_SMILES, OUTPUT_UNIT, minimum inhibitory concentration
records = [
    ("CN[C@@H]1[C@H](O)[C@H](NC)[C@H]2O[C@@]3(O)C(=O)C[C@@H](C)O[C@H]3O[C@@H]2[C@H]1O", "µg/mL", 16),
    ("CCC[C@@H]1C[C@@H](C(=O)N[C@@H]([C@H]2O[C@H](SC)[C@H](O)[C@@H](O)[C@H]2O)[C@H](C)Cl)N(C)C1", "µg/mL", 8),
    ("CN1C[C@@H]2C[C@H]1CN2c1cc2c(cc1F)c(=O)c(C(=O)O)cn2C1CC1", "µg/mL", 0.25),
]

Give the reported minimum inhibitory concentration for CN(C)[C@@H]1C(O)=C(C(N)=O)C(=O)[C@@]2(O)C(O)=C3C(=O)c4c(O)cccc4[C@@](C)(O)[C@H]3C[C@@H]12 (system: Mannheimia haemolytica).
4

----------
Each record here notes measured minimum inhibitory concentration.
# Tested on: Escherichia coli
# ASSAY_INFO: minimum inhibitory concentration (MIC)
# ASSAY_CONDITIONS: isolate (source animal id): 138

# MOLECULE, minimum inhibitory concentration
rows = [
    ("CCN1CCN(c2cc3c(cc2F)c(=O)c(C(=O)O)cn3C2CC2)CC1 [Enrofloxacin]", "> 2 µg/mL"),
]

Look at this molecule and give its reported minimum inhibitory concentration. CC[C@H]1OC(=O)C[C@@H](O)[C@H](C)[C@@H](O[C@@H]2O[C@H](C)[C@@H](O)[C@H](N(C)C)[C@H]2O)[C@@H](CCN2C[C@H](C)C[C@H](C)C2)C[C@@H](C)C(=O)/C=C/C(C)=C/[C@@H]1CO[C@@H]1O[C@H](C)[C@@H](O)[C@@H](OC)[C@H]1OC [Tilmicosin]
> 16 µg/mL

Request the reported minimum inhibitory concentration associated with CCCN1C[C@H](C)[C@@H](O)[C@](C)(O)[C@@H](CC)OC(=O)[C@H](C)[C@@H](O[C@H]2C[C@@](C)(OC)[C@@H](O)[C@H](C)O2)[C@H](C)[C@@H](O[C@@H]2O[C@H](C)C[C@H](N(C)C)[C@H]2O)[C@](C)(O)C[C@H]1C [Gamithromycin]
> 8 µg/mL

----------
# Tested on: Histophilus somni
# ASSAY_INFO: minimum inhibitory concentration (MIC)
# ASSAY_CONDITIONS: isolate (source animal id): 216
MEASURED_ATTRIBUTE: minimum inhibitory concentration

Observe how each entry below is paired with its result.
# QUERY_SMILES, minimum inhibitory concentration
measured = [
    ("CC[C@H]1OC(=O)C[C@@H](O)[C@H](C)[C@@H](O[C@@H]2O[C@H](C)[C@@H](O)[C@H](N(C)C)[C@H]2O)[C@@H](CCN2CCCCC2)C[C@@H](C)C(=O)/C=C/C(C)=C/[C@@H]1CN1CCCCC1", "8 µg/mL"),
    ("CN[C@@H]1[C@H](O)[C@H](NC)[C@H]2O[C@@]3(O)C(=O)C[C@@H](C)O[C@H]3O[C@@H]2[C@H]1O", "> 64 µg/mL"),
    ("CC1(C)S[C@@H]2[C@H](NC(=O)[C@H](N)c3ccccc3)C(=O)N2[C@H]1C(=O)O", "≤ 0.25 µg/mL"),
]

Consider the additional compound presented here.
Which minimum inhibitory concentration reading was recorded for the compound CN1C[C@@H]2C[C@H]1CN2c1cc2c(cc1F)c(=O)c(C(=O)O)cn2C1CC1 ?
≤ 0.12 µg/mL

----------
# System: Histophilus somni
# ASSAY_INFO: minimum inhibitory concentration (MIC)
# ASSAY_CONDITIONS: isolate (source animal id): 296
Each item that follows carries a reported minimum inhibitory concentration.

Recorded results for 4 compounds are shown here.
# QUERY_SMILES, minimum inhibitory concentration
rows = [
    ("CC[C@H]1OC(=O)C[C@@H](O)[C@H](C)[C@@H](O[C@@H]2O[C@H](C)[C@@H](O)[C@H](N(C)C)[C@H]2O)[C@@H](CCN2C[C@H](C)C[C@H](C)C2)C[C@@H](C)C(=O)/C=C/C(C)=C/[C@@H]1CO[C@@H]1O[C@H](C)[C@@H](O)[C@@H](OC)[C@H]1OC", "4 µg/mL"),
    ("COc1cc(Cc2cnc(N)nc2N)cc(OC)c1OC.Cc1cc(NS(=O)(=O)c2ccc(N)cc2)no1", "≤ 2 µg/mL"),
    ("CCCNC[C@]1(O)[C@H](C)O[C@@H](O[C@H]2[C@H](C)[C@@H](O[C@@H]3O[C@H](C)C[C@H](N(C)C)[C@H]3O)[C@](C)(O)C[C@@H](C)CN[C@H](C)[C@@H](O)[C@](C)(O)[C@@H](CC)OC(=O)[C@@H]2C)C[C@@]1(C)OC", "≤ 8 µg/mL"),
    ("CS(=O)(=O)c1ccc([C@@H](O)[C@@H](CF)NC(=O)C(Cl)Cl)cc1", "≤ 0.25 µg/mL"),
]

We next turn to a different compound, shown below.
Given the compound CN[C@@H]1[C@H](O)[C@H](NC)[C@H]2O[C@@]3(O)C(=O)C[C@@H](C)O[C@H]3O[C@@H]2[C@H]1O , what is its reported minimum inhibitory concentration?
> 64 µg/mL
